The reported measurements were obtained from patent US20160166636A1.

- Target entity: Recombinant bovine HSC70 (Stressgen) (bovine) (UniProt P19120)
- Sequence (P19120 whole entry): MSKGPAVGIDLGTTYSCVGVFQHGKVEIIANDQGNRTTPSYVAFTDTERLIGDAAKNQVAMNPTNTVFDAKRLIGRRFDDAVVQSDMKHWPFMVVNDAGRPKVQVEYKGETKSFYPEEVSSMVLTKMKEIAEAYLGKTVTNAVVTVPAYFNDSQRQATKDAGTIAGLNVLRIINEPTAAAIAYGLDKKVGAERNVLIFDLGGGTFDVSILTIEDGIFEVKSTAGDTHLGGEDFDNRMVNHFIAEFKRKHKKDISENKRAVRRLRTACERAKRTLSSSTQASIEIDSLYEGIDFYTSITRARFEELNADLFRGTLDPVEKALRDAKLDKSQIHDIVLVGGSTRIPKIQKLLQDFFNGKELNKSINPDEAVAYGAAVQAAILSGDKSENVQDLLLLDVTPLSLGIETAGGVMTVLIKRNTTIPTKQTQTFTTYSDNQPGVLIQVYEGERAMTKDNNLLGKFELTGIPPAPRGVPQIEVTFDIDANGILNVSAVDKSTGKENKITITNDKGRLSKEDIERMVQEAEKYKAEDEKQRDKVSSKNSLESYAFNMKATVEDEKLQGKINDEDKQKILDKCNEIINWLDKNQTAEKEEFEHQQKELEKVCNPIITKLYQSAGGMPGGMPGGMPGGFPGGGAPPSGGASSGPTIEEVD
- Test method notes: SPR Biacore 3000, HSC70 immobilised, peptide analyte at 3.12 uM, 1:1 Langmuir fit
Square brackets hold non-standard residues; d marks the D form. Ends that are not written are not given here. Met(O) = CS(=O)CC[C@H](N)C(=O)O; pS = N[C@@H](COP(=O)(O)O)C(=O)O
Measured metric: Kd (µM)
Quick note: give the figure in µM, leave out the unit.

{"Binder": "RIH[Met(O)]VYSKR[pS]GKPRGYAFIEY", "Measurement unit": "µM", "Kd": 1.91}

Then this binder:
Query RIHMVYSKR[pS]GKPRGYAFIEY [P140 peptide (peptide consisting of SEQ ID NO: 1 in which serine at position 10 is phosphorylated)] yields Kd of 6.94
